Test system: Ka02 multi-drug resistant P. Aeruginosa strain
Experiment: Antibiogram of Ka02 (Vitek MIC); also: key: S = antibiotic sensitive; R = antibiotic resistance
Assay type: cell-based
Conditions: Ka02
PARAMETER: Final (sensitive/resistant call)

Please review the entries below; each comes with its answer.
Q) Please look up its Final (sensitive/resistant call): "NCC[C@H](O)C(=O)N[C@@H]1C[C@H](N)[C@@H](O[C@H]2O[C@H](CN)[C@@H](O)[C@H](O)[C@H]2O)[C@H](O)[C@H]1O[C@H]1O[C@H](CO)[C@@H](O)[C@H](N)[C@H]1O"
A) S

Q) Note, next up: "CC(C)(O/N=C(\C(=O)N[C@@H]1C(=O)N2C(C(=O)[O-])=C(C[n+]3ccccc3)CS[C@H]12)c1csc(N)n1)C(=O)O"
A) S-R

Q) Note, next up: "C[C@@H](O)[C@H]1C(=O)N2C(C(=O)O)=C(S[C@@H]3CN[C@H](C(=O)N(C)C)C3)[C@H](C)[C@H]12"
A) R

Q) Note, next up: "NC[C@H]1O[C@H](O[C@H]2[C@H](O)[C@@H](O[C@H]3O[C@H](CO)[C@@H](O)[C@H](N)[C@H]3O)[C@H](N)C[C@@H]2N)[C@H](N)C[C@@H]1O"
A) R

***
Q) Please look up its Final (sensitive/resistant call): "CN(C)c1cc(NC(=O)CNC(C)(C)C)c(O)c2c1C[C@H]1C[C@H]3[C@H](N(C)C)C(O)=C(C(N)=O)C(=O)[C@@]3(O)C(O)=C1C2=O"
A) R
